MIC by entry:
# Test system: Streptococcus pyogenes
# experimentalDetails: Antibacterial activity against efflux-resistant Streptococcus pyogenes B0545 by agar microdilution method
# Format: functional
recordedMetric: MIC (µg/mL)

compound=CC[C@H]1OC(=O)[C@H](C)C(=O)[C@H](C)[C@@H](O[C@@H]2O[C@H](C)C[C@H](N(C)C)[C@H]2O)[C@](C)(OC/C=C/c2cnc3ccccc3c2)C[C@@H](C)C(=O)N[C@H](C)[C@H](O)[C@@]1(C)O reportedmeasurement=4
compound="CC[C@H]1OC(=O)[C@H](C)C(=O)[C@H](C)[C@@H](O[C@@H]2O[C@H](C)C[C@H](N(C)C)[C@H]2O)[C@](C)(OCC(O)CN[C@H](C)Cc2ccccc2)C[C@@H](C)NC(=O)[C@H](C)[C@H](O)[C@@]1(C)O (stereo partly drawn)" reportedmeasurement=0.5
compound="CC[C@H]1OC(=O)[C@H](C)[C@@H](O[C@H]2C[C@@](C)(OC)[C@@H](O)[C@H](C)O2)[C@H](C)[C@@H](O[C@@H]2O[C@H](C)C[C@H](N(C)C)[C@H]2O)[C@](C)(O)C[C@@H](C)CN(C)[C@H](C)[C@@H](O)[C@]1(C)O [AZITHROMYCIN]" reportedmeasurement=1

---

MIC overview
# Test system: Streptococcus pneumoniae
# experimentalDetails: Antibacterial activity against constitutive macrolide-lincosamide-streptogramin B-resistant Streptococcus pneumoniae B0627 by agar microdilution method
# Type: functional
recordedMetric: MIC

linenotation=CC[C@H]1OC(=O)[C@H](C)[C@@H](O[C@@H]2C[C@@](C)(OC)[C@@H](O)[C@H](C)O2)[C@H](C)[C@@H](O[C@@H]2O[C@H](C)C[C@H](N(C)C)[C@H]2O)[C@](C)(OC/C=C/NCCc2ccc([N+](=O)[O-])cc2)C[C@@H](C)C(=O)N[C@H](C)[C@H](O)[C@@]1(C)O reportedmeasurement="> 64 µg/mL"
linenotation=CC[C@H]1OC(=O)[C@H](C)[C@@H](O[C@@H]2C[C@@](C)(OC)[C@@H](O)[C@H](C)O2)[C@H](C)[C@@H](O[C@@H]2O[C@H](C)C[C@H](N(C)C)[C@H]2O)[C@](C)(OC/C=C/N[C@H](C)Cc2ccc([N+](=O)[O-])cc2)C[C@@H](C)NC(=O)[C@H](C)[C@H](O)[C@@]1(C)O reportedmeasurement="> 64 µg/mL"
linenotation=CC[C@H]1OC(=O)[C@H](C)[C@@H](O[C@H]2C[C@@](C)(OC)[C@@H](O)[C@H](C)O2)[C@H](C)[C@@H](O[C@@H]2O[C@H](C)C[C@H](N(C)C)[C@H]2O)[C@](C)(O)C[C@@H](C)CN(C)[C@H](C)[C@@H](O)[C@]1(C)O reportedmeasurement="> 64 µg/mL"
linenotation=C=CCO[C@]1(C)C[C@@H](C)NC(=O)[C@H](C)[C@H](O)[C@@](C)(O)[C@@H](CC)OC(=O)[C@H](C)C(=O)[C@H](C)[C@H]1O[C@@H]1O[C@H](C)C[C@H](N(C)C)[C@H]1O reportedmeasurement="> 64 µg/mL"
linenotation=CC[C@H]1OC(=O)[C@H](C)C(=O)[C@H](C)[C@@H](O[C@@H]2O[C@H](C)C[C@H](N(C)C)[C@H]2O)[C@](C)(OC/C=C/c2ccnc3ccccc23)C[C@@H](C)NC(=O)[C@H](C)[C@H](O)[C@@]1(C)O reportedmeasurement="> 64 µg/mL"
linenotation=CC[C@H]1OC(=O)[C@H](C)C(=O)[C@H](C)[C@@H](O[C@@H]2O[C@H](C)C[C@H](N(C)C)[C@H]2O)[C@](C)(OC[C@@H](O)CN2CCN(c3ccc4c(c3F)c(=O)c(C(=O)O)cn4C3CC3)CC2)C[C@@H](C)NC(=O)[C@H](C)[C@H](O)[C@@]1(C)O reportedmeasurement="≤ 0.125 µg/mL"
linenotation=C=CCO[C@]1(C)C[C@@H](C)C(=O)N[C@H](C)[C@H](O)[C@@](C)(O)[C@@H](CC)OC(=O)[C@H](C)C(=O)[C@H](C)[C@H]1O[C@@H]1O[C@H](C)C[C@H](N(C)C)[C@H]1O reportedmeasurement="> 64 µg/mL"
